Target: fusion protein PRI
Sequence (chain, as listed by the source): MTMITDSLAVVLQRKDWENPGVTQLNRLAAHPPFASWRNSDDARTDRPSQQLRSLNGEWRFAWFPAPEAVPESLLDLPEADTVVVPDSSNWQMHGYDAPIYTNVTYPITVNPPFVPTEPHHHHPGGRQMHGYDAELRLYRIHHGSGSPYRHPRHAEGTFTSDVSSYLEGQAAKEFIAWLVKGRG
Measurement Kind: relative cleavage efficiency

Examples with their reported relative cleavage efficiency follow.
Protein | relative cleavage efficiency
OmpT protease variant OmpT D97A (protein) STETLSFTPDNINADISLGTLSGKTKERVYLAEEGGRKVSQLDWKFNNAAIIKGAINWDLMPQISIGAAGWTTLGSRGGNMVDQDWMDSSNPGTWTAESRHPDTQLNYANEFDLNIKGWLLNEPNYRLGLMAGYQESRYSFTARGGSYIYSSEEGFRDDIGSFPNGERAIGYKQRFKMPYIGLTGSYRYEDFELGGTFKYSGWVESSDNDEHYDPGKRITYRSKVKDQNYYSVAVNAGYYVTPNAKVYVEGAWNRVTNKKGNTSLYDHNNNTSDYSKNGAGIENYNFITTAGLKYTF | < 3%
OmpT protease variant OmpT D97G (protein) STETLSFTPDNINADISLGTLSGKTKERVYLAEEGGRKVSQLDWKFNNAAIIKGAINWDLMPQISIGAAGWTTLGSRGGNMVDQDWMDSSNPGTWTGESRHPDTQLNYANEFDLNIKGWLLNEPNYRLGLMAGYQESRYSFTARGGSYIYSSEEGFRDDIGSFPNGERAIGYKQRFKMPYIGLTGSYRYEDFELGGTFKYSGWVESSDNDEHYDPGKRITYRSKVKDQNYYSVAVNAGYYVTPNAKVYVEGAWNRVTNKKGNTSLYDHNNNTSDYSKNGAGIENYNFITTAGLKYTF | less than 3.0%
OmpT protease variant OmpT D97V (protein) STETLSFTPDNINADISLGTLSGKTKERVYLAEEGGRKVSQLDWKFNNAAIIKGAINWDLMPQISIGAAGWTTLGSRGGNMVDQDWMDSSNPGTWTVESRHPDTQLNYANEFDLNIKGWLLNEPNYRLGLMAGYQESRYSFTARGGSYIYSSEEGFRDDIGSFPNGERAIGYKQRFKMPYIGLTGSYRYEDFELGGTFKYSGWVESSDNDEHYDPGKRITYRSKVKDQNYYSVAVNAGYYVTPNAKVYVEGAWNRVTNKKGNTSLYDHNNNTSDYSKNGAGIENYNFITTAGLKYTF | less than 3.0%
OmpT protease variant OmpT D97L (protein) STETLSFTPDNINADISLGTLSGKTKERVYLAEEGGRKVSQLDWKFNNAAIIKGAINWDLMPQISIGAAGWTTLGSRGGNMVDQDWMDSSNPGTWTLESRHPDTQLNYANEFDLNIKGWLLNEPNYRLGLMAGYQESRYSFTARGGSYIYSSEEGFRDDIGSFPNGERAIGYKQRFKMPYIGLTGSYRYEDFELGGTFKYSGWVESSDNDEHYDPGKRITYRSKVKDQNYYSVAVNAGYYVTPNAKVYVEGAWNRVTNKKGNTSLYDHNNNTSDYSKNGAGIENYNFITTAGLKYTF | < 3%

Ask | Bench note: what relative cleavage efficiency did OmpT protease variant OmpT D97M (protein) STETLSFTPDNINADISLGTLSGKTKERVYLAEEGGRKVSQLDWKFNNAAIIKGAINWDLMPQISIGAAGWTTLGSRGGNMVDQDWMDSSNPGTWTMESRHPDTQLNYANEFDLNIKGWLLNEPNYRLGLMAGYQESRYSFTARGGSYIYSSEEGFRDDIGSFPNGERAIGYKQRFKMPYIGLTGSYRYEDFELGGTFKYSGWVESSDNDEHYDPGKRITYRSKVKDQNYYSVAVNAGYYVTPNAKVYVEGAWNRVTNKKGNTSLYDHNNNTSDYSKNGAGIENYNFITTAGLKYTF show?
Reply | < 3%
